# Tested on: Malme-3M
# ASSAY_SUMMARY: NCI tumour cell line growth inhibition, 48 h
The source made the active and inactive calls. No stated cut-off is given here; in the data, active = GI50 up to about 1.1 µM and inactive = higher. *1 amine or outer side, *2 acyl side, *3 side chain or, on linkers, in order; H or OH if unused. Where a SMILES comes first, the peptide text is derived from it. Bridges are numbered along the chain shown (N, C = ends). Roman numbers before positions name the chains, in order. [ ]: non-standard residue; d: D form. Actinocin(9to1) = Cc1c2oc3c(C)ccc(C(=O)[*:1])c3nc-2c(C(=O)[*:2])c(N)c1=O; NMeV = CN[CH](C(=O)O)C(C)C; Sar = CNCC(=O)O
Thanks in advance; please answer with one of these: active, inactive

Request: # outcome recorded in this test, key = CCCCCCCCCC(O)CC(=O)c1c(O)cccc1O (centres undefined)
Response: inactive

Request: Hey, what did the test say about O=C(O)c1ccccc1/C=C1\Cc2ccc3c(c2C1=O)CCCC3 ?
Response: inactive

Request: Give the logged outcome of this assay for the following compound: CCCSc1cc(Cl)c(C)cc1S(=O)(=O)n1ccnc1O
Response: inactive

Request: Call for entry CCCCC(C(=O)NCCNC(=O)CCC(=O)N(C)O)C(=O)NCCNC(=O)CCC(=O)N(C)O :
Response: inactive

Request: Given O=C(O)CCNS(=O)(=O)c1ccc2ccccc2c1 , state the outcome it received in this test.
Response: inactive

Request: Record request — test call for O=C(O)CCC1(Br)CCCCC(Br)C1=O (centres undefined)
Response: inactive

Request: Just curious, what result did Cc1c2oc3c(C)ccc(C(=O)NC4C(=O)NC(Cc5ccccc5)C(=O)N5CCCC5C(=O)N(C)CC(=O)N(C)C(C(C)C)C(=O)OC4C)c3nc-2c(C(=O)NC2C(=O)NC(Cc3ccccc3)C(=O)N3CCCC3C(=O)N(C)CC(=O)N(C)C(C(C)C)C(=O)OC2C)c(N)c1=O (centres undefined) (I: TFP[Sar][NMeV] / II: TFP[Sar][NMeV]; ester I:1-I:C, II:1-II:C; linker I:N-II:N via Actinocin(9to1); configuration not given here) get here?
Response: active

Request: # outcome recorded in this test, key = CCCC/C=C/C1Cc2ccccc2CN1S(=O)(=O)c1ccc(C)cc1 (centres undefined)
Response: inactive

Request: Recorded test call requested for C/C(=C\c1ccc2c(c1)OCO2)[N+](=O)[O-]
Response: inactive

====

# Tested on: KM12
# ASSAY_SUMMARY: NCI tumour cell line growth inhibition, 48 h
Active and inactive are the calls of the source. No stated cut-off is given here; in the data, active = GI50 up to about 1.1 µM and inactive = higher.
TEST_READOUT: GI50

Request: API: value(readout=GI50, system=KM12) for record Cc1ccc(/C=N/NS(=O)(=O)c2ccc(/C=C3\NC(=O)NC3=O)cc2)cc1
Response: > 100 µM (inactive)

Request: API: value(readout=GI50, system=KM12) for record COc1ccc(CC2CCc3nc(N)nc(N)c3C2)cc1OC (centres undefined)
Response: 1.28 µM (inactive)

Request: What is its GI50 for KM12? Entry: Nc1ncc2c(n1)-c1ccccc1OC2N1CCCC1 (centres undefined)
Response: > 100 µM (inactive)

Request: What is its GI50 for KM12? Entry: Nc1cc2[nH]cnc2c(=O)[nH]1
Response: 51.6 µM (inactive)

Request: Look up GI50 with KM12 for this molecule: CCCCCCCCCCCCCc1nnn[nH]1
Response: 18.3 µM (inactive)

Request: So what GI50 did CCCOC(=O)c1cc(C(=CCC[C@H]2CC[C@@]3(C)[C@@H](CC[C@@H]4[C@@H]3CC[C@]3(C)[C@@H](C(C)CCCC(C)C)CC[C@@H]43)C2)c2cc(Cl)c(O)c(C(=O)OCCC)c2)cc(Cl)c1O (some centres undefined) get with KM12?
Response: > 50 µM (inactive)

Request: What measured GI50 is associated with O=C(OCc1ccccc1)N1CCNCCNCC1 on KM12?
Response: > 100 µM (inactive)

Request: Return GI50 measured with KM12 given this molecule: CCCCCCCCCC(O)CC(=O)c1c(O)cccc1O (centres undefined)
Response: 19.3 µM (inactive)

Request: GET /values?readout=GI50&system=KM12&item= N/N=C(/Cc1nc2ccc(C(=O)c3ccccc3)cc2nc1O)C(=O)Nc1ccc([N+](=O)[O-])cc1[N+](=O)[O-]
Response: > 100 µM (inactive)

Request: Which measured GI50 belongs to O=C(O)c1cc(CCc2ccc(O)c(O)c2)ccc1O , tested on KM12?
Response: > 100 µM (inactive)

Request: Lookup: GI50 / KM12 / O=C1OC([C@H](O)c2cccnc2)c2ccccc21 (some centres undefined)
Response: > 10 µM (inactive)

Request: Give KM12 GI50 for Cc1ccc(C)c2c1CC(Cc1ccccc1C(=O)O)C2=O (centres undefined)
Response: > 100 µM (inactive)

Request: Give KM12 GI50 for COCCc1c(C)c(C#N)c2n(C)c3ccccc3n2c1=O
Response: > 10 µM (inactive)

Request: Lab note: need GI50 for COc1ccc(-c2c(C(=O)Nc3ccccc3)c(-c3ccccc3)n(C3OC(CO)C(O)C(O)C3O)c(=S)c2C#N)cc1 (centres undefined) on KM12, anyone have it?
Response: > 100 µM (inactive)

Request: Request - read-out GI50 | tested on KM12 | molecule COC1(CC[C@H](C)COC2OC(CO)C(O)C(O)C2O)O[C@H]2C[C@H]3[C@@H]4CC=C5C[C@@H](OC6OC(CO)C(OC7OC(C)C(O)C(O)C7O)C(O)C6OC6OC(C)C(O)C(O)C6O)CC[C@]5(C)[C@H]4CC[C@]3(C)[C@H]2[C@@H]1C (some centres undefined)
Response: 2.47 µM (inactive)

Request: I'm curious: which GI50 was measured for CO/C(=N\N=C\c1ccc(OC)c(OC)c1)c1ccncc1 tested on KM12?
Response: > 10 µM (inactive)

Request: So what GI50 did CCOC1CC(=O)c2c(Br)sc(Br)c21 (centres undefined) get with KM12?
Response: 19.3 µM (inactive)

Request: Any idea what GI50 came out for C/N=C(\N)c1ccc(NC(=N)c2ccc(C(=N)Nc3ccc(/C(N)=N/C)cc3)cc2)cc1 on KM12?
Response: > 100 µM (inactive)

Request: # value lookup — system KM12, readout GI50, item COC(=O)C(C(=O)C(=O)Nc1ccc(C)cc1C)c1csc(-n2nc(-c3ccccc3)cc2-c2ccccc2)n1 (centres undefined)
Response: 65.2 µM (inactive)

====

# System: SK-MEL-28
# ASSAY_SUMMARY: NCI tumour cell line growth inhibition, 48 h
Calls of active or inactive are those of the source. Rule as the data show it: active = GI50 up to about 1.1 µM and inactive = higher. *1 amine or outer side, *2 acyl side, *3 side chain or, on linkers, in order; H or OH if unused. Where a SMILES comes first, the peptide text is derived from it. Bridges are numbered along the chain shown (N, C = ends). Roman numbers before positions name the chains, in order. [ ]: non-standard residue; d: D form. Actinocin(9to1) = Cc1c2oc3c(C)ccc(C(=O)[*:1])c3nc-2c(C(=O)[*:2])c(N)c1=O; NMeV = CN[CH](C(=O)O)C(C)C; Sar = CNCC(=O)O
Please answer using one outcome listed in YES (active), NO (inactive)

Request: For this molecule, state the assay outcome: CCCSc1cc(Cl)c(C)cc1S(=O)(=O)n1ccnc1O
Response: NO

Request: Please let me know the test result on file for O=C(O)c1ccccc1/C=C1\Cc2ccc3c(c2C1=O)CCCC3 .
Response: NO

Request: Outcome? CCCC[C@H](CCc1ccccc1)N(C(=O)OC)N1CCC[C@H]1COC
Response: NO

Request: Which outcome did this test record for the molecule COC(=O)NC(=O)c1cn(C2CCCCC2)c(=O)[nH]c1=O ?
Response: NO

Request: Tell me the assay call for N#C/C(=C\c1c(Cl)cccc1Cl)c1ccccc1 please.
Response: NO

Request: Give the logged outcome of this assay for the following molecule: COc1cc(OC)c2nc(C)c3c(c2c1)SCC3
Response: NO

Request: Given C[N+]1(CCC(=O)c2ccccc2)CCC2CCC(C2)C1 (centres undefined) , state the outcome it received in this test.
Response: NO

Request: Name the outcome recorded for Nc1ccc2c(c1)NC(=O)[C@@H]1CCCN1C2=O in the assay.
Response: NO

Request: Status in this test for CCC(O)C1Cc2c(C)cc3c(c2O1)C(=O)c1ccccc1C3=O (centres undefined) ?
Response: NO

Request: Record lookup: outcome of this test for COc1ccc(CC2CCc3nc(N)nc(N)c3C2)cc1OC (centres undefined) ?
Response: NO

Request: Recorded call for COc1ccc2c(c1)CC[C@@H]1C2CC[C@]2(C)C(=O)N(N)C(=O)CC12 (some centres undefined) ?
Response: NO

Request: For Cc1c2oc3c(C)ccc(C(=O)NC4C(=O)NC(Cc5ccccc5)C(=O)N5CCCC5C(=O)N(C)CC(=O)N(C)C(C(C)C)C(=O)OC4C)c3nc-2c(C(=O)NC2C(=O)NC(Cc3ccccc3)C(=O)N3CCCC3C(=O)N(C)CC(=O)N(C)C(C(C)C)C(=O)OC2C)c(N)c1=O (centres undefined) (I: TFP[Sar][NMeV] / II: TFP[Sar][NMeV]; ester I:1-I:C, II:1-II:C; linker I:N-II:N via Actinocin(9to1); configuration not given here) , which call appears in the assay record?
Response: YES

Request: What call does the record list for NNC(=O)c1nn[nH]c1SSc1[nH]nnc1C(=O)NN ?
Response: NO

Request: Per the assay record, what outcome was assigned to CC1(C)N=c2[nH]cnc2=C(C(N)=O)N1 ?
Response: NO

Request: Outcome? O=C(/C=C/c1ccc(O)c(O)c1)OCCCOC(=O)/C=C/c1ccc(O)c(O)c1
Response: NO

Request: # outcome recorded in this test, key = CCC(C)C1NC(=O)C(NC(=O)C(CC(C)C)N(C)C(=O)[C@@H]2C=CCN2C(=O)[C@H](C)O)C(C)OC(=O)[C@H](Cc2ccc(OC)cc2)N(C)C(=O)[C@@H]2CCCN2C(=O)[C@H](CC(C)C)NC(=O)C(C)C(=O)[C@H](C(C)C)OC(=O)CC1O (some centres undefined)
Response: YES

Request: Dear colleague, could you share the recorded outcome for CCOC(=O)c1oc2c(OC)cc(Cl)c3c2c1CCC3 when you have a moment?
Response: NO

Request: Called result for CC(=O)N(C)c1ccc(/N=C/N(C)C)cc1
Response: NO

Request: Hey, what did the test say about Cc1cc2ncn(C3CCCCO3)c2cc1C (centres undefined) ?
Response: NO
